Values from PubChem BioAssay (NCI)

system: BT-549 breast; experiment: NCI-60 one-dose screen, 48 h (100 = growth as untreated, 0 = no growth, -100 = all killed); conditions: 10 µM unless noted
Compounds without any hit were thinned out: in the full panel of roughly 83,000, 20% have a hit.
Here, each record is paired with measured growth data.

molecule	unitsOfMeasure	growth
CCOC(=O)c1ccc(NC2=CC(=O)C(C)=C(C)C2=O)cc1	%	91.1
COc1cc2oc(-c3cccc(NC(=O)[C@@H](N)C(C)C)c3)cc(=O)c2c(OC)c1OC	%	104
O=C1c2ccccc2C23C(=C(c4cncnc4)c4ccccc42)CCCN13 (centres undefined)	%	120
Cc1cc(Br)ccc1-n1cc(C#N)c(N)c1C(=O)c1ccc(Br)cc1	%	89.8
CN1CCN(CC#CCn2c3c(c4ccccc42)C[C@]2(C)[C@H]4CC=C5[C@@H]6CC(C)(C)CC[C@]6(C(=O)N6CCOCC6)CC[C@@]5(C)[C@]4(C)CC[C@H]2C3(C)C)CC1	%	96.2
Fc1cccc(Cl)c1/C=N/Nc1nc(N/N=C/c2c(F)cccc2Cl)nc(N2CCCCC2)n1	%	68.4
O=c1oc2ccc(-c3ccc(F)cc3F)cc2c(=O)n1-c1ccc(Br)cc1F	%	30.9
O=C1[C@H]2Cc3c([nH]c4ccccc34)[C@H](c3ccc(Cl)cc3)N2C(=O)CN1C1CCN(CC2CCCCC2)CC1	%	70.8
CNc1sc(S(=O)(=O)NC)nc1S(=O)(=O)c1ccc(C)cc1	%	99.5
